Values from patent US6221865A

Reported % inhibition of farnesyltransferase at 1 × 10^-5 M values for a set of molecules
# SUBJECT OF TEST: protein farnesyltransferase (Rattus norvegicus, UniProt Q02293+Q04631)
# Construct: The enzyme is purified according to Reiss, Y., et al., Cell, 62: 81-88 (1990), utilizing steps one through three; from tissue; host or cells: rat brain
# PROTOCOL DESCRIPTION: Inhibition of farnesyltransferase (scintillation proximity assay, rat brain enzyme, biotin-K Ras B fragment substrate)
# Assay type: biochemical
# CONDITION CONTEXT: 1 × 10^-5 M (Table 1)
Answer in %, number only, no unit symbol.

CSCC[C@H](NC(=O)c1ccc(CNc2cccc(Oc3ccccc3)c2)cc1-c1ccccc1)C(=O)O [Example 686] : 48
CSCC[C@H](NC(=O)c1ccc(CNCCN2CCOCC2)cc1-c1ccccc1)C(=O)O [Example 365] : 97
CSCC[C@H](NC(=O)c1ccc(CNc2cccc(OC(F)(F)F)c2)cc1-c1ccccc1)C(=O)O [Example 678] : 73

According to the records, this molecule CSCC[C@H](NC(=O)c1ccc(CNc2nccs2)cc1-c1ccccc1)C(=O)O [Example 374] displays % inhibition of farnesyltransferase at 1 × 10^-5 M of 61

According to the records, this molecule COc1ccc(Br)c(C(=O)Nc2ccc(C(=O)N[C@@H](CCSC)C(=O)O)c(-c3ccccc3)c2)c1 [Example 754] displays % inhibition of farnesyltransferase at 1 × 10^-5 M of 40

According to the records, this molecule CCN(Cc1ccc(C(=O)N[C@@H](CCSC)C(=O)O)c(-c2ccccc2)c1)Cc1cc([N+](=O)[O-])ccc1O [Example 711] displays % inhibition of farnesyltransferase at 1 × 10^-5 M of 46

According to the records, this molecule CSCC[C@H](NC(=O)c1ccc(CNC(CO)C(O)c2ccccc2)cc1-c1ccccc1)C(=O)O (stereo partly shown) [Example 713] displays % inhibition of farnesyltransferase at 1 × 10^-5 M of 40

----------
# SUBJECT OF TEST: protein farnesyltransferase (Rattus norvegicus, UniProt Q02293+Q04631)
# Construct: The enzyme is purified according to Reiss, Y., et al., Cell, 62: 81-88 (1990), utilizing steps one through three; from tissue; host or cells: rat brain
# PROTOCOL DESCRIPTION: Inhibition of farnesyltransferase (scintillation proximity assay, rat brain enzyme, biotin-K Ras B fragment substrate)
# Assay type: biochemical
# CONDITION CONTEXT: 1 × 10^-8 M (Table 4)
RESULT TYPE: % inhibition of farnesyltransferase at 1 × 10^-8 M (%)
Answer in %, number only, no unit symbol.

CSCC[C@H](NC(=O)c1ccc(COCc2ccc(-c3ccc(C(C)C)cc3)o2)cc1-c1ccccc1C)C(=O)[O-].[Li+] : 66

According to the records, this compound CSCC[C@H](NC(=O)c1ccc(CN(Cc2ccccc2)c2ccc(C(F)(F)F)cc2)cc1-c1ccccc1C)C(=O)O displays % inhibition of farnesyltransferase at 1 × 10^-8 M of 85

According to the records, this compound CSCC[C@H](NC(=O)c1ccc(CN[C@H](CSc2ccccc2C)CC2CCCCC2)cc1-c1ccccc1C)C(=O)O displays % inhibition of farnesyltransferase at 1 × 10^-8 M of 97

According to the records, this compound CC[C@H](CC1CCCCC1)NCc1ccc(C(=O)N[C@@H](CCSC)C(=O)O)c(-c2ccccc2C)c1 displays % inhibition of farnesyltransferase at 1 × 10^-8 M of 92

According to the records, this compound COc1ccc(N(Cc2ccccc2)Cc2ccc(C(=O)N[C@@H](CCSC)C(=O)O)c(-c3ccccc3C)c2)cc1 displays % inhibition of farnesyltransferase at 1 × 10^-8 M of 73

According to the records, this compound CCCCC(Cc1ccccc1Cl)OCc1ccc(C(=O)N[C@@H](CCSC)C(=O)O)c(-c2ccccc2C)c1 (stereo partly shown) displays % inhibition of farnesyltransferase at 1 × 10^-8 M of 79

According to the records, this compound CSCC[C@H](NC(=O)c1ccc(CO[C@H](CSC(C)(C)C)CC2CCCCC2)cc1-c1ccccc1C)C(=O)O displays % inhibition of farnesyltransferase at 1 × 10^-8 M of 91

According to the records, this compound CSCC[C@H](NC(=O)c1ccc(COCc2ccccc2C(C)C)cc1-c1ccccc1C)C(=O)[O-].[Li+] displays % inhibition of farnesyltransferase at 1 × 10^-8 M of 61

According to the records, this compound CSCC[C@H](NC(=O)c1ccc(COCc2cccc(Cl)c2)cc1-c1ccccc1C)C(=O)[O-].[Li+] displays % inhibition of farnesyltransferase at 1 × 10^-8 M of 71

According to the records, this compound CCCCS(=O)(=O)N(Cc1ccc(C(=O)N[C@@H](CCSC)C(=O)O)c(-c2ccccc2C)c1)CC1CCCCC1 displays % inhibition of farnesyltransferase at 1 × 10^-8 M of 80

According to the records, this compound CSCC[C@H](NC(=O)c1ccc(CN(Cc2ccccc2)c2ccc([N+](=O)[O-])cc2)cc1-c1ccccc1C)C(=O)O displays % inhibition of farnesyltransferase at 1 × 10^-8 M of 96

According to the records, this compound CSCC[C@H](NC(=O)c1ccc(CN[C@@H](CC2CCCCC2)C(=O)N2CCCCC2)cc1-c1ccccc1C)C(=O)O displays % inhibition of farnesyltransferase at 1 × 10^-8 M of 92

According to the records, this compound CSCC[C@H](NC(=O)c1ccc(COCc2cnc(-c3ccccc3Cl)s2)cc1-c1ccccc1C)C(=O)[O-].[Li+] displays % inhibition of farnesyltransferase at 1 × 10^-8 M of 76

According to the records, this compound CCSC[C@H](CC1CCCCC1)OCc1ccc(C(=O)N[C@@H](CCSC)C(=O)O)c(-c2ccccc2C)c1 displays % inhibition of farnesyltransferase at 1 × 10^-8 M of 93

According to the records, this compound CSCC[C@H](NC(=O)c1ccc(CN(CCc2ccccc2)c2cncnc2)cc1-c1ccccc1C)C(=O)O displays % inhibition of farnesyltransferase at 1 × 10^-8 M of 90

According to the records, this compound CSCC[C@H](NC(=O)c1ccc(COCc2ccc(-c3ccc(N(C)C)cc3)o2)cc1-c1ccccc1C)C(=O)O displays % inhibition of farnesyltransferase at 1 × 10^-8 M of 75
